- Test system: SF-268 CNS
- assay.details: NCI-60 one-dose screen, 48 h (100 = growth as untreated, 0 = no growth, -100 = all killed)
- measurement.context: 10 µM unless noted
Compounds without any hit were thinned out: in the full panel of roughly 83,000, 20% have a hit.
Exercise: state measured growth for each of the molecules provided.
# value in %; strip the unit string

Lab note: "O=C(OCc1ccc2c(Br)cc(Br)c(O)c2n1)N1CCN(C(=O)c2cc3ccccc3[nH]2)CC1" gave growth of 31.6

Documented growth of "C=C(C)[C@@H]1CC[C@]2(C#N)CC[C@]3(C)[C@H](CC[C@@H]4[C@@]5(C)CCCNC(C)(C)[C@@H]5CC[C@]43C)[C@@H]12" : 87.1

Lab note: "CNC(=O)c1cc(Oc2cccc3nc(NC(=O)Nc4ccc(F)cc4F)ccc23)ccn1" gave growth of 48.1

Recorded growth (molecule CCOC(=O)CC1CSC(N/N=C(/C)c2cccc(C(F)(F)F)c2)=N1 (centres undefined) ): 100

###

Give growth for every item shown.
- Tested on: OVCAR-3 ovarian
- assay.details: NCI-60 one-dose screen, 48 h (100 = growth as untreated, 0 = no growth, -100 = all killed)
- measurement.context: 10 µM unless noted
Compounds without any hit were thinned out: in the full panel of roughly 83,000, 20% have a hit. The source made the active and inactive calls. The calls were made as follows: active = growth percent below 10; inactive = the rest.

# value of growth, OVCAR-3 ovarian, item "COC(=O)c1ccc(-n2cc(CCCOS(=O)(=O)c3ccc(F)cc3)nn2)cc1" = 107% (inactive)

Value (growth, OVCAR-3 ovarian) for record "COc1cc(OC)cc(C(=O)Nc2cnc(Nc3ccc(N4CCOCC4)nc3)nc2Oc2ccc(C(F)(F)F)cc2)c1" = 62.8% (inactive)

Considering CCN1C(=O)N(CC)C2C1NN=c1s/c(=C3\C(=O)N(C)c4ccccc43)c(=O)n12 (stereo not given) , its growth with OVCAR-3 ovarian was recorded as -14.1% (active)

Entry "CCOC(=O)c1ccc2c(c1)[n+](=O)c(C(C)=O)c(C(F)(F)F)n2[O-]" under OVCAR-3 ovarian had growth of -84.7% (active)

Query "CN(C)CCOc1nc2c3cc([N+](=O)[O-])ccc3nn2c2ccccc12" on OVCAR-3 ovarian; growth returned: 63.7% (inactive)

growth on OVCAR-3 ovarian for C#CCOc1ccc(C2=NN(CCCC)C3N=C(Cl)c4ncn(CCCC)c4N23)cc1OCC#C (stereo not given) is 97.2% (inactive)

The value of growth recorded for CSc1nc(N)c2c(n1)NC(c1ccccc1)C1CCc3ccccc3C1=N2 (stereo not given) when tested on OVCAR-3 ovarian reads 43.9% (inactive)

# lookup: CC1=C([Se]CC(OC(=O)[C@@H](CO)NC(=O)OC(C)(C)C)C(=O)NCCCCCC(=O)OCc2ccccc2)C(=O)c2ccccc2C1=O (stereo not given in full) on OVCAR-3 ovarian, growth = -82.1% (active)

The compound "Cc1cc2c(c(C)n1)CN(C(=O)Nc1nc(-c3cncs3)ccc1N)C2" on OVCAR-3 ovarian: growth was 103% (inactive)

// returns growth for CC1(C)C2=C(C(=O)N1Cc1ccccc1)C(c1ccco1)N(C(=O)C1CCC1)CCN2 (stereo not given) with OVCAR-3 ovarian; value = 107% (inactive)

The reported growth value, OVCAR-3 ovarian, for "O=C(O)c1cc2ccccc2s1" reads 120% (inactive)

Sample O=CN1N=C(c2cccc(Nc3ccncc3)c2)CC1c1ccc2c(c1)OCO2 (stereo not given) , system: OVCAR-3 ovarian. Its growth is 99.6% (inactive)

Assay OVCAR-3 ovarian, sample "C=C(C)Cn1c(SCC(=O)c2cccs2)nc2sc3c(c2c1=O)CCCC3" , growth read: 64.5% (inactive)

Record "COc1cc2ncnc(Nc3ccc(S(=O)(=O)Nc4cc(C)on4)cc3)c2cc1OCCCN1CCOCC1" ; system OVCAR-3 ovarian; growth = 113% (inactive)

Summary: CN(Cc1ccccc1)c1nc(Cl)c(C2CC(c3ccc(Cl)cc3)=NN2c2cc(Cl)cc(Cl)c2)s1 (stereo not given) , OVCAR-3 ovarian, growth = 109% (inactive)

Hey, OVCAR-3 ovarian data for "CCCc1cc(CCC)n2nc(N)nc2n1" : growth came out at 121% (inactive)

Fill in: OVCAR-3 ovarian growth for "c1ccc(-c2cn3nc(-c4c[nH]c5ccccc45)sc3n2)cc1" = 86.1% (inactive)

"C#C[C@]1(O)CC[C@H]2[C@@H]3CC=C4c5sc(-c6ccccc6)nc5CC[C@]4(C)[C@H]3CC[C@@]21C" tested on OVCAR-3 ovarian gave growth: 106% (inactive)

growth for OVCAR-3 ovarian with input "CC(=O)Cc1nsc(NC(=O)c2cc(-c3cc(Cl)ccc3Cl)oc2C)n1" equals 110% (inactive)

growth for OVCAR-3 ovarian with input C#Cc1c(I)n(C2OC(CO[Si](C)(C)C(C)(C)C)C3OC(C)(C)OC32)c(=O)[nH]c1=O (stereo not given) equals -40.2% (active)

# lookup: "NC(=O)[C@@H]1Cc2ccccc2CN1C(=O)c1ccc2c(c1)Cc1ccccc1-2" on OVCAR-3 ovarian, growth = 85.7% (inactive)

So the reported growth for "Nc1c(C(=O)c2ccc(Cl)cc2)sc(Nc2ccccc2)c1-c1nc2ccccc2s1" , on OVCAR-3 ovarian, turned out to be 4.1% (active)

Measured growth for this entry CCN1C(=O)N(CC)C2C1NN=c1s/c(=C\c3ccc([N+](=O)[O-])cc3)c(=O)n12 (stereo not given) on OVCAR-3 ovarian: 7.68% (active)

The measured growth that "C=CC(=O)Nc1ccc2ncnc(Nc3cccc(NS(=O)(=O)CCC)c3Cl)c2c1" showed for OVCAR-3 ovarian is 12.7% (inactive)

# O=C(CN1C(=O)NC2NC(=O)NC21)N/N=C/c1cccc([N+](=O)[O-])c1 (stereo not given) with OVCAR-3 ovarian: growth is 108% (inactive)

Let me check: "O=C1Nc2ccccc2/C1=C/c1cccn1CCCCCCn1c2ccccc2c(=O)c2ccccc21" , system OVCAR-3 ovarian, measured growth is 64.9% (inactive)

Param item: CCOC(=O)CC1CSC(N/N=C(/C)c2cccc(C(F)(F)F)c2)=N1 (stereo not given) ; param system: OVCAR-3 ovarian; output growth: 105% (inactive)

growth for OVCAR-3 ovarian with input "CSc1nn2c(-c3cc4cc(Br)ccc4oc3=O)ccnc2c1C#N" equals 114% (inactive)

With OVCAR-3 ovarian as the test system, "COc1ccc(CNc2c3ccccc3nc3ccccc23)cc1OC" showed growth of 43.7% (inactive)

Kindly note: OVCAR-3 ovarian, "CNc1nc2ncc(-c3c(C)noc3C)cc2n1Cc1ccccc1" , growth value reported: 47.2% (inactive)

Result for "CS(=O)(=O)Nc1cc(-c2ccc3ncnc(Nc4cccc(Cl)c4)c3c2)cnc1Cl" , tested on OVCAR-3 ovarian, growth: -10.7% (active)

Value (growth, OVCAR-3 ovarian) for record "COc1ccc(-n2c(=O)n(-c3ccc(-c4nc5ccc(F)cc5s4)cc3)c(=O)c3cccnc32)cc1" = 106% (inactive)

The compound "CCOc1ccc(N2C(=O)CCSC2=S)cc1" , when measured on OVCAR-3 ovarian, yielded growth of 114% (inactive)

The observed growth for "Cc1nc2c(c(-c3ccccc3)n1)Cc1c(ccc3ccccc13)O2" when tested with OVCAR-3 ovarian stands at 99.1% (inactive)

Observed growth on OVCAR-3 ovarian, entry CC1OC(C(=O)N2CCN(CCO)CC2)CC1COC1CCCCC1 (stereo not given) , equals 96.7% [50 µM] (inactive)

Observed growth on OVCAR-3 ovarian, entry "COc1cc(NC(=O)c2cncnc2Nc2ccc3c(ccn3Cc3cccc(F)c3)c2)cc(OC)c1" , equals 23% (inactive)

Summary line: "CCCN1C2CCC1/C(=C\c1ccc(OC)cc1)C(=O)/C2=C/c1ccc(OC)cc1" , OVCAR-3 ovarian, reported growth = 81.8% (inactive)

Bench note, OVCAR-3 ovarian: entry "Cn1nc(-c2ccc(Cl)cc2)nc2c(=O)n(C)c(=O)nc1-2" , its growth = -40.2% (active)

Let me check: "COc1ccccc1-c1nc2ccc3[nH]ncc3c2c2c1CCCC2" , system OVCAR-3 ovarian, measured growth is 114% (inactive)

growth on OVCAR-3 ovarian for "O=C(c1ccc(F)cc1)C1CCN(CCn2c(=O)[nH]c3ccccc3c2=O)CC1" is 96.9% (inactive)

###

- Tested on: OVCAR-4 ovarian
- assay.details: NCI-60 one-dose screen, 48 h (100 = growth as untreated, 0 = no growth, -100 = all killed)
- measurement.context: 10 µM unless noted
- Experimental: Growth inhibition of the OVCAR-4 human tumor cell line is measured as a screen for anti-cancer activity. Cells are grown in 96 well plates and exposed to the test compound for 48 hours. Compounds are tested at a single concentration, which is 10^-5 M for most compounds. The reported endpoint is percent growth (GI% or GIPRCNT), where numbers from 0 - 100% represent growth inhibition, and numbers from -100% - 0 represent cell death. For example, a value of 40 represents 60% growth inhibition. […]
This is part of a sample that, as a whole, favours compounds with a hit. Of some 83,000 tested, about 20% had one in any assay.
Is growth at least 40%? Then YES. If not, NO.

Request: Hello, I need to know if "COC(=O)c1cc(-c2cc(OC)c(OC)c(OC)c2)[nH]c1N/N=C/c1c(Cl)cccc1Cl" has measured growth not below 40%. Thanks!
Result: NO

Request: Reported growth reaches at least 40% for "C#C[C@]1(O)CC[C@H]2[C@@H]3CC=C4c5sc(-c6ccccc6)nc5CC[C@]4(C)[C@H]3CC[C@@]21C" ?
Result: YES

Request: For this compound, is measured growth 40% or higher? "N=C(N)c1ccc(-c2ccc(-c3ccccc3)s2)nc1"
Result: YES

Request: Exam item: decide whether the reported growth for "CN1CCN(Cc2ccc(NC(=O)c3cc(C#Cc4cnc(N)c5ncccc45)n(C)n3)cc2C(F)(F)F)CC1" is at least 40%.
Result: YES
